Origin of measurements: ChEMBL document CHEMBL4680272

test system: Influenza A virus (A/Anhui/1/2005(H5N1)); assay: Inhibition of Influenza A virus (A/Anhui/1/2005(H5N1) Neuraminidase using MUNANA as substrate at 100 uM preincubated for 5 to 15 mins followed by substrate addition and measured after 30 mins by fluorescence spectrophotometric method; conditions: time 35-45 min
Listed here are compounds together with their documented inhibition.
Entry rule: numbers only, all in %.

CCC(CC)O[C@@H]1C=C(C(=O)O)C[C@H](NC(=O)N(C(C)C)C(C)C)[C@H]1NC(C)=O : 63.1
CCC(CC)O[C@@H]1C=C(C(=O)O)C[C@H](NC(=O)Nc2cc(OC)c(OC)c(OC)c2)[C@H]1NC(C)=O : 16.4
CCC(CC)O[C@@H]1C=C(C(=O)O)C[C@H](NC(=S)NC2CC2)[C@H]1NC(C)=O : 29.2
CCC(CC)O[C@@H]1C=C(C(=O)O)C[C@H](NC(=O)Nc2cccc([N+](=O)[O-])c2)[C@H]1NC(C)=O : 36.9
CCC(CC)O[C@@H]1C=C(C(=O)O)C[C@H](NC(=O)Nc2ccccc2)[C@H]1NC(C)=O : 32.6
CCC(CC)O[C@@H]1C=C(C(=O)O)C[C@H](NC(=O)N2CCCCC2)[C@H]1NC(C)=O : 56.4
CCC(CC)O[C@@H]1C=C(C(=O)O)C[C@H](NC(=S)NCc2ccc(Br)cc2)[C@H]1NC(C)=O : 59.6

Attention now shifts to the item below.
q: Would you mind telling me what inhibition value was observed for CCC(CC)O[C@@H]1C=C(C(=O)O)C[C@H](NC(=S)NCc2ccc(F)cc2)[C@H]1NC(C)=O ?
a: 21

###

tested on: Influenza A virus (A/Anhui/1/2005(H5N1)); experiment: Inhibition of Influenza A virus (A/Anhui/1/2005(H5N1) Neuraminidase using MUNANA as substrate at 100 uM preincubated for 5 to 15 mins followed by substrate addition and measured after 30 mins by fluorescence spectrophotometric method; settings: time 35-45 min
quantity: inhibition
Please append the unit to your numeric answer.

Solved cases below.
CCC(CC)O[C@@H]1C=C(C(=O)O)C[C@H](NC(=O)NCc2ccccc2)[C@H]1NC(C)=O : 35.1%
CCC(CC)O[C@@H]1C=C(C(=O)O)C[C@H](NC(=S)Nc2ccccc2)[C@H]1NC(C)=O : 47.1%
CCC(CC)O[C@@H]1C=C(C(=O)O)C[C@H](NC(=O)NCc2ccc(C#N)cc2)[C@H]1NC(C)=O : 32.5%
CCC(CC)O[C@@H]1C=C(C(=O)O)C[C@H](NC(=O)NCCc2ccccc2)[C@H]1NC(C)=O : 17.7%

q: Would you mind telling me what inhibition value was observed for CCC(CC)O[C@@H]1C=C(C(=O)O)C[C@H](NC(=S)Nc2ccc(C)c(C)c2)[C@H]1NC(C)=O ?
a: 52.4%

###

assay: in vitro; conditions: mouse, liver microsomes
quantity: remaining at 1 h (%)
Entry rule: numbers only, all in %.

q: Would you mind telling me what remaining at 1 h value was observed for CCC(CC)O[C@@H]1C=C(C(=O)O)C[C@H](NC(N)=O)[C@H]1NC(C)=O ?
a: 100

###

test: in vitro; details: human, plasma
quantity: remaining at 1 h (%)
Entry rule: numbers only, all in %.

q: Would you mind telling me what remaining at 1 h value was observed for CCC(CC)O[C@@H]1C=C(C(=O)O)C[C@H](NC(N)=O)[C@H]1NC(C)=O ?
a: 102
